Provide the recorded growth for the entries that follow.
# Test system: SN12C renal
# PROCEDURE DETAILS: NCI-60 one-dose screen, 48 h (100 = growth as untreated, 0 = no growth, -100 = all killed)
# SETTINGS: 10 µM unless noted
This is part of a sample that, as a whole, favours compounds with a hit. Of some 83,000 tested, about 20% had one in any assay. Calls of active or inactive are those of the source. The calls were made as follows: active = growth percent below 10; inactive = the rest.

Looking up "C[C@]12CCC(=O)C=C1CC[C@H]1[C@@H]3C[C@@H](O)[C@](O)(C(=O)CO)[C@@]3(C)C[C@H](O)[C@@]12F" , I see its growth listed as 82.9% (inactive)

Looking up "O=C1OC2(c3ccccc31)c1ccccc1-c1ccccc12" , I see its growth listed as 90.4% (inactive)

Looking up "[N-]=[N+]=NCc1ncc(-c2ccc(C(F)(F)F)cc2)c(NC2CCCCCC2)n1" , I see its growth listed as 85.2% [50 µM] (inactive)

Looking up "O=C(/C=C/c1cccc(Nc2ccnc3cc(Cl)ccc23)c1)c1ccc(Cl)cc1" , I see its growth listed as 37.6% (inactive)

Looking up "CC(=O)Nc1ccc(C(=O)COc2ccc(/C=C3\CCc4ccccc4C3=O)cc2)cc1" , I see its growth listed as 103% (inactive)

* * *

# Tested on: HOP-92 NSCLC
# PROCEDURE DETAILS: NCI-60 one-dose screen, 48 h (100 = growth as untreated, 0 = no growth, -100 = all killed)
# SETTINGS: 10 µM unless noted
About 83,000 compounds went through this panel and 20% of them were active in at least one assay; those are over-represented in the sample as a whole.
Provide the recorded growth for the entries that follow.
Value expressed in %; do not type the unit.

Looking up "COc1cc(/C=N/NC(=O)c2ccc(C(F)(F)F)nc2Nc2ccc(Cl)cc2C)ccc1O" , I see its growth listed as 40

Looking up COc1cc(/C=C2\CN(C)CC3=C2Nc2nc(SC)[nH]c(=O)c2C3c2cc(OC)c(OC)c(OC)c2)cc(OC)c1OC (stereo unspecified) , I see its growth listed as 82.7

Looking up "COc1ccc(/C=C2\CCc3ccccc3C2=O)cc1" , I see its growth listed as 84.2

Looking up "COc1cccc(C=Nc2cc(C(C)C)c(O)cc2C)c1O" , I see its growth listed as 82.3

Looking up "C(#Cc1ccccc1C#Cc1ccccn1)c1ccc(OCCCCCCOc2ccc(C#Cc3ccccc3C#Cc3ccccn3)cc2)cc1" , I see its growth listed as 9.48

Looking up "c1ccc(N2c3nc4ccccc4cc3Sc3cc4ccccc4nc32)nc1" , I see its growth listed as 39

Looking up "COP(=O)(OC)C(c1ccccc1)(c1ccccc1)c1ccccc1" , I see its growth listed as 62.8

Looking up "CCCCCCCCCCN1CCC(N2CCCCC2)CC1" , I see its growth listed as -12.4

Looking up "C/C=C(/C(=C/C)c1ccc(O)cc1)c1ccc(O)cc1" , I see its growth listed as 58.5

Looking up "COc1ccc(Cl)cc1Nc1nc(C(F)(F)F)ccc1C(=O)N/N=C/c1c(Cl)cccc1Cl" , I see its growth listed as 70.9

Looking up "CC(=O)/C(=C/c1ccc(Cl)cc1)C(=O)c1ccccc1" , I see its growth listed as 62.5

* * *

# Test system: OVCAR-3 ovarian
# PROCEDURE DETAILS: NCI-60 one-dose screen, 48 h (100 = growth as untreated, 0 = no growth, -100 = all killed)
# SETTINGS: 10 µM unless noted
This is part of a sample that, as a whole, favours compounds with a hit. Of some 83,000 tested, about 20% had one in any assay.
RESULT TYPE: growth (%)
Value expressed in %; do not type the unit.

Looking up "O=c1[nH]cc(Nc2cc(Cl)c3nonc3c2[N+](=O)[O-])c(=O)[nH]1" , I see its growth listed as 123

Looking up "CCOc1cc(/C=C/C(=O)CC(=O)/C=C/c2ccc(OC(=O)CNc3nc4ccc(OC)cc4s3)c(OCC)c2)ccc1OC(=O)CNc1nc2ccc(OC)cc2s1" , I see its growth listed as 77.8

Looking up "O=c1[nH]c(N2CCC(Cc3ccccc3)CC2)nc2sc3c(c12)CCCC3" , I see its growth listed as 106

Looking up "c1ccc(-c2oc(-c3ccccc3)c3ccccc23)cc1" , I see its growth listed as 124

Looking up "COc1ccc2ncccc2c1Cc1c(OC)ccc2ncccc12" , I see its growth listed as 72.9

* * *

# Test system: OVCAR-8 ovarian
# PROCEDURE DETAILS: NCI-60 one-dose screen, 48 h
# SETTINGS: 10 µM unless noted
This is part of a sample that, as a whole, favours compounds with a hit. Of some 83,000 tested, about 20% had one in any assay. Activity calls are given as the source filed them. The calls were made as follows: active = growth percent below 10; inactive = the rest.
Give one outcome, nothing more. List: yes = active, no = inactive

[ask] For this molecule, state the assay outcome: "CC(C)Sc1nc(-c2ccc(Br)cc2)c(C#N)c(N2CCCCC2)n1"
[reply] no

[ask] For this molecule, state the assay outcome: "COc1cc(C(=O)c2cc3c(cc2C)OCO3)cc(OC)c1OC"
[reply] no

[ask] For this molecule, state the assay outcome: "CCCCCc1c(C)[nH]c(/C=C2\N=C(c3ccc[nH]3)C=C2Oc2ccc(Cl)cc2)c1C"
[reply] yes

[ask] For this molecule, state the assay outcome: COc1cc(/C=C/C(=O)C(C(=O)/C=C/c2ccc(OC(=O)CCNC34CC5CC(CC(C5)C3)C4)c(OC)c2)C(=O)CCNC23CC4CC(CC(C4)C2)C3)ccc1OC(=O)CCNC12CC3CC(CC(C3)C1)C2 (centres undefined)
[reply] yes

[ask] For this molecule, state the assay outcome: "CNNc1ncnc2c1cnn2-c1ccc(S(N)(=O)=O)cc1"
[reply] no

[ask] For this molecule, state the assay outcome: CC1Cc2ccccc2N1C(=O)c1ccc(C(=O)c2ccccc2)cc1 (centres undefined)
[reply] no

[ask] For this molecule, state the assay outcome: "COc1ccc(-c2nnc3c4[nH]cnc4ncn23)c(OC)c1"
[reply] no

[ask] For this molecule, state the assay outcome: "COc1cc(/C=C2\CN(S(=O)(=O)c3ccc(C)cc3)C/C(=C\c3cc(CN4CCOCC4)c(O)c(OC)c3)C2=O)cc(CN2CCOCC2)c1O"
[reply] yes

[ask] For this molecule, state the assay outcome: "CCCCCc1c(C)[nH]c(/C=C2\N=C(c3ccc[nH]3)C=C2OCc2ccccc2)c1C"
[reply] yes

[ask] For this molecule, state the assay outcome: "O=c1[nH]c(N2CCC(Cc3ccccc3)CC2)nc2sc3c(c12)CCCC3"
[reply] no

[ask] For this molecule, state the assay outcome: "O=C1/C=C/[C@@H](O)[C@@H]2C[C@@H](O)C[C@H]2/C=C/CCC[C@H](CO)O1"
[reply] no

[ask] For this molecule, state the assay outcome: "Clc1ccc2nc(CI)c(CI)nc2c1"
[reply] no

[ask] For this molecule, state the assay outcome: CN1C(=O)C(C2=NN(C=O)C(c3ccc(F)cc3)C2)C(=O)N(C)C1=O (centres undefined)
[reply] no

[ask] For this molecule, state the assay outcome: "O=C1OC2(c3ccccc31)c1ccccc1-c1ccccc12"
[reply] no

[ask] For this molecule, state the assay outcome: "N#Cc1c(-c2ccccc2)cc(-c2ccccc2)n(CC(=O)O)c1=O"
[reply] no

[ask] For this molecule, state the assay outcome: "c1ccc(N2c3nc4ccccc4cc3Sc3cc4ccccc4nc32)nc1"
[reply] no

[ask] For this molecule, state the assay outcome: "Nc1nc2c(nnn2Cc2ccc(Cl)c(Cl)c2)c(=O)[nH]1"
[reply] no

[ask] For this molecule, state the assay outcome: "O=C(Nc1nc2c(C(F)(F)F)cccc2s1)c1cc(Cl)ccc1O"
[reply] yes

[ask] For this molecule, state the assay outcome: CC1=C([Se]CC(OC(=O)[C@@H](CSSC(C)(C)C)NC(=O)C(C)(C)C)C(=O)NCCCCCC(=O)OCc2ccccc2)C(=O)c2ccccc2C1=O (some centres undefined)
[reply] yes

[ask] For this molecule, state the assay outcome: "Cc1ccc(C2=Nc3c(ccc4c(C)c(C)c(=O)oc34)OC2)cc1"
[reply] no

[ask] For this molecule, state the assay outcome: "Cn1cnc([N+](=O)[O-])c1Sc1nc(N)nc2nc[nH]c12"
[reply] no

[ask] For this molecule, state the assay outcome: "COc1ccc(-n2cnc3cc(C(=O)N4CCCCC4)ccc32)cc1"
[reply] no

[ask] For this molecule, state the assay outcome: "Cc1nn(-c2nc3ccccc3s2)c(C)c1Oc1ccccc1O"
[reply] no

[ask] For this molecule, state the assay outcome: "C1=C(Cc2ccccc2)n2cnc3ncnc(c32)S1"
[reply] no

[ask] For this molecule, state the assay outcome: "NC(=O)c1cc(Br)cc(Br)c1NS(=O)(=O)c1ccccc1"
[reply] no

[ask] For this molecule, state the assay outcome: "CCCCN=C(N)c1ccc(OCCSCCOc2ccc(C(N)=NCCCC)cc2)cc1"
[reply] no

[ask] For this molecule, state the assay outcome: "COC(=O)c1c(NC(=O)CSc2nnnn2-c2ccc(OC)cc2)sc(C)c1C"
[reply] no

[ask] For this molecule, state the assay outcome: CC(=O)N1N=C(c2ccc(Cl)cc2)CC1c1c(C)nn(-c2ccccc2)c1N(C)Cc1ccccc1 (centres undefined)
[reply] no

[ask] For this molecule, state the assay outcome: "Cc1[nH]ccc2cc3nc4ccccc4c3cc12"
[reply] no

[ask] For this molecule, state the assay outcome: "COc1cnc2c(c1)C(=O)c1c-2n(CCCNC2=NCCS2)c(=O)c2cc(F)ccc12"
[reply] no

[ask] For this molecule, state the assay outcome: COc1ccc(C2CC(c3ccc4c(c3)OCO4)=NN2C=O)cc1 (centres undefined)
[reply] no

[ask] For this molecule, state the assay outcome: "NC(=NCCCCCCN=C(N)/N=C(\N)Nc1ccc(Cl)cc1)/N=C(\N)Nc1ccc(Cl)cc1"
[reply] no

[ask] For this molecule, state the assay outcome: "COc1cc(/C=C/C(=O)c2c(C)n([O-])c3ccc(Cl)cc3[n+]2=O)cc(OC)c1OC"
[reply] no

[ask] For this molecule, state the assay outcome: "O=C(NCCNC(=O)Oc1cccc2ccccc12)Oc1cccc2ccccc12"
[reply] no
